Just for reference, patent US8796224B2 is where these values come from.

- experiment description: physchem
- condition summary: solubility in normal saline
observable: solubility

Problem: Could you share which solubility value was measured for CCCCCCCCCCC(=O)NC(Cc1c[nH]c2ccccc12)C(=O)NC(CC(N)=O)C(=O)NC(CC(=O)O)C(=O)NC1C(=O)NCC(=O)NC(CCCN)C(=O)NC(CC(=O)O)C(=O)NC(C)C(=O)NC(CC(=O)O)C(=O)NCC(=O)NC(CO)C(=O)NC(C(C)CC(=O)O)C(=O)NC(CC(=O)c2ccccc2N)C(=O)OC1C (stereo not shown) [CB-131547] ?
Solution: ~80 mg/mL

----------
- experiment description: physchem
- condition summary: solubility in water
observable: solubility

Problem: Could you share which solubility value was measured for CCCCCCCCCC(=O)N[C@@H](Cc1c[nH]c2ccccc12)C(=O)N[C@H](CC(N)=O)C(=O)N[C@@H](CC(=O)O)C(=O)N[C@@H]1C(=O)NCC(=O)N[C@@H](CCCN)C(=O)N[C@@H](CC(=O)O)C(=O)N[C@H](C)C(=O)N[C@@H](CC(=O)O)C(=O)NCC(=O)N[C@H](CO)C(=O)N[C@@H]([C@H](C)CC(=O)O)C(=O)N[C@@H](CC(=O)c2ccccc2N)C(=O)O[C@@H]1C [daptomycin] ?
Solution: > 1000 mg/mL
